Biological target: T1, FX zymogen (UniProt P00742 41-179; P00742 183-488)
T1 chain 1: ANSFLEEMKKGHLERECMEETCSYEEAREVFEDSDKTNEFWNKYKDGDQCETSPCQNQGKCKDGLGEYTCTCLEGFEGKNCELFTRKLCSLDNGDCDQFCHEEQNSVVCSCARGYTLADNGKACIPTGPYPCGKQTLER
T1 chain 2: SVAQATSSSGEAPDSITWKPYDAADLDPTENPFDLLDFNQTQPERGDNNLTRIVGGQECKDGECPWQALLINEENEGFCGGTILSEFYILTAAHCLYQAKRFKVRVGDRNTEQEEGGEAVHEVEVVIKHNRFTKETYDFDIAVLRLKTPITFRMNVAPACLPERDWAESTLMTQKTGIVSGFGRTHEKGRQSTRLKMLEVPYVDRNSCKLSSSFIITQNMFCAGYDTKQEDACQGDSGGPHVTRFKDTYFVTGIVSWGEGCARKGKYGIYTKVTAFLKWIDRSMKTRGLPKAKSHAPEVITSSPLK
Experiment: BLI
OBSERVED PROPERTY: pKd
In textbook form, pKd equals minus log to base ten of the concentration in mol/L.

- BIIB-12-1298 (antibody, V domains shown) VH: QVQLVESGGGVVQPGRSLRLSCAASGFTFSSYGMHWVRQAPGKGLEWVAVISYDGSNKYYADSVKGRFTISRDNSKNTLYLQMNSLRAEDTAVYYCAKGGSDRRVGSWGQGTLVTVSS VL: DIQMTQSPSSVSASVGDRVTITCRASQGISSWLAWYQQKPGKAPKLLIYAASSLQSGVPSRFSGSGSGTDFTLTISSLQPEDFATYYCQQTNSLPITFGGGTKVEIK: 7.47
- BIIB-12-1300 (antibody, V domains shown) VH: QVQLVESGGGVVQPGRSLRLSCAASGFTFSSYGMHWVRQAPGKGLEWVAVISYDGSNKYYADSVKGRFTISRDNSKNTLYLQMNSLRAEDTAVYYCARGSKYLHAWGQGTLVTVSS VL: DIQMTQSPSSVSASVGDRVTITCRASQGISSWLAWYQQKPGKAPKLLIYAASSLQSGVPSRFSGSGSGTDFTLTISSLQPEDFATYYCQQASSFPPTFGGGTKVEIK: 7.31

As a next step, examine the binder that follows.
For the binder BIIB-12-912 (antibody, V domains shown) VH: QVQLVESGGGVVQPGRSLRLSCAASGFTFSSYGMHWVRQAPGKGLEWVAVISYDGSNKYYADSVKGRFTISRDNSKNTLYLQMNSLRAEDTAVYYCAKSGGRYGYDIWGQGTMVTVSS VL: EIVMTQSPATLSVSPGERATLSCRASQSVSSNLAWYQQKPGQAPRLLIYGASTRATGIPARFSGSGSGTEFTLTISSLQSEDFAVYYCQQFHNFPPTFGGGTKVEIK , what pKd is on record? 7.51
